The origin of these recorded values is ChEMBL document CHEMBL4261656.

Recorded pIC50 for the following compounds
system tested: Aldo-keto reductase family 1 member C3 (Homo sapiens)
Sequence (P42330 whole entry): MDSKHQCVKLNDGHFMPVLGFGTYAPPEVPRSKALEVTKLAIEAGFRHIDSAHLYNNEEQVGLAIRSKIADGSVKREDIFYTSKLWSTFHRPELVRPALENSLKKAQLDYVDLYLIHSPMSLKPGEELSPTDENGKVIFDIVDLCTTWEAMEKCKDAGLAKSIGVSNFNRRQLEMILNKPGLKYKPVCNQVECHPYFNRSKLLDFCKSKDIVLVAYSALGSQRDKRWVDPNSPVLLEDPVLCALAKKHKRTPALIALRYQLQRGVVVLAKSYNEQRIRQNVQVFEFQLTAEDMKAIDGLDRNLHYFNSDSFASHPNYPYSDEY
protocol details: Inhibition of recombinant human AKR1C3 expressed in Escherichia coli BL21 cells in presence of 9,10-phenanthrenequinone and NADPH by fluorescence assay
pIC50: −log10 of the molar value.

compound	censoring operator	pIC50
COc1cc(C2C(C#N)=C(N)Oc3[nH]nc(C)c32)cc([N+](=O)[O-])c1O (stereo not drawn)	=	6.27
CCCc1nn(C2CCOC2)c2c1C(c1cc(OC)c(O)c([N+](=O)[O-])c1)C(C#N)=C(N)O2 (stereo not drawn)	=	6.11
O=[N+]([O-])c1ccc(COP(=O)(O)OCc2ccc([N+](=O)[O-])cc2)cc1	=	5.14
CCCc1nn(C)c2c1C(c1cc(OC)c(O)c([N+](=O)[O-])c1)C(C#N)=C(N)O2 (stereo not drawn)	=	6.29
CCCc1n[nH]c2c1C(c1ccc(F)cc1)C(C#N)=C(N)O2 (stereo not drawn)	<	4.60
COc1cc(C2C(C#N)=C(N)Oc3[nH]nc(CCC4CCCCC4)c32)cc([N+](=O)[O-])c1O (stereo not drawn)	=	6.54
CCCCCc1n[nH]c2c1C(c1cc(OC)c(O)c([N+](=O)[O-])c1)C(C#N)=C(N)O2 (stereo not drawn)	=	6.80
CCCc1n[nH]c2c1C(c1cccc([N+](=O)[O-])c1)C(C#N)=C(N)O2 (stereo not drawn)	<	4.60
